Tested on: KB cells
Assay: Cytotoxicity against KB cells (crystal violet dying method)
Format: cell-based
Conditions: Homo sapiens; KB cells, 72 hours, 50% proliferation inhibition; read-out: Cytotoxicity [IC50 (μM)]
Counter-ions that a name gives are not always drawn.
REPORTED METRIC: IC50 (µM)
Give bare numbers, in µM.

Example entries begin here.
O=C(NCCNCCNC(=O)c1cnc2ccccc2n1)c1cc(C(=O)NCCNCCN2C(=O)c3cccc4cc([N+](=O)[O-])cc(c34)C2=O)cc(N2C(=O)c3cccc4cc([N+](=O)[O-])cc(c34)C2=O)c1 [Example 15, trihydrochloride] : 0.21
CN1CCN(C(=O)c2cc(C(=O)NCCNCCN3C(=O)c4cccc5cc([N+](=O)[O-])cc(c45)C3=O)cc(N3C(=O)c4cccc5cc([N+](=O)[O-])cc(c45)C3=O)c2)CC1 [Example 49, hydrochloride] : 0.035
Cn1cc(NC(=O)c2cc(NC=O)cn2C)cc1C(=O)NCCNCCNC(=O)c1cc(C(=O)NCCNCCN2C(=O)c3cccc4cc([N+](=O)[O-])cc(c34)C2=O)cc(N2C(=O)c3cccc4cc([N+](=O)[O-])cc(c34)C2=O)c1 [Example 38, dihydrochloride] : 6.9
O=C(NCCNCCN1C(=O)c2cccc3c(Cl)ccc(c23)C1=O)c1cc(C(=O)NCCNCCN2C(=O)c3cccc4c(Cl)ccc(c34)C2=O)cc(N2C(=O)c3cccc4cccc(c34)C2=O)c1 [Example 9, dihydrochloride] : 0.023

# input for lookup
[ask] Need IC50 of O=C(NCCNCCN1C(=O)c2cccc3cccc(c23)C1=O)c1cc(C(=O)NCCN2CCCCC2)cc(N2C(=O)c3cccc4cc([N+](=O)[O-])cc(c34)C2=O)c1 [Example 47, hydrochloride] , thanks.
[reply] 0.0035
